# System: COLO 205
# protocolText: NCI tumour cell line growth inhibition, 48 h
Activity calls are given as the source filed them. Cut-off read from the data, not from the text of the source: active = GI50 up to about 1.1 µM and inactive = higher.
The reply should be one of these categories: T (active), F (inactive)

These recorded examples may help you get a feel for the data.
Cc1ccc2nc(C(C)C)c(=O)[nH]c2c1 ... F
C/C(=N/NC(=S)N(C)CCc1ccccn1)c1cnccn1 ... T
CC(N)/C(N)=N/O (stereo not drawn) ... F
C=CCN1C[C@H](C)N([C@@H](c2ccc(C(=O)N3CCCCC3)cc2)c2cccc(OC)c2)C[C@H]1C ... F
CC(=O)N/N=C1\NC(=O)C[C@H]2[C@@H]3CC=C4C[C@@H](OC(C)=O)CC[C@]4(C)[C@H]3CC[C@]12C ... F
COc1ccc(CCN2CCOCC2)cc1 ... F
CC(=O)/C(=C/N1C(=O)CC(=O)NC1=S)C(=O)Nc1ccccc1C ... F
CCOc1ccc2c(c1)[n+]([O-])c(-c1ccccc1)c(N)[n+]2[O-] ... F

Query block: // outcome(item) with item = Nc1nc2c(nnn2C2C=C(CO)C(O)C2O)c(=O)[nH]1 (stereo not drawn)
Result block: F

Query block: # fetch the recorded call for `c1ccc(-c2[nH]c(-c3ccccc3)c(-c3cnccn3)c2-c2cnccn2)cc1` here
Result block: F

Query block: Recorded call for COc1cc(C2c3[nH]c4ccccc4c3[C@@H](Nc3ccc(C#N)cc3)[C@H]3COC(=O)N23)cc(OC)c1O (stereo partly drawn) ?
Result block: T

Query block: Hi team, can someone confirm the assay call for `O=C(NCCCCNc1cccccc1=O)OCc1ccccc1` ?
Result block: F

Query block: Can you look up the reported call for `Cc1c([N+](=O)[O-])oc2ccc3ccccc3c12` for me?
Result block: F

###

# Test system: K562
# protocolText: NCI tumour cell line growth inhibition, 48 h
Activity calls are given as the source filed them. No stated cut-off is given here; in the data, active = GI50 up to about 1.1 µM and inactive = higher.
The categories you may choose from are active, inactive

Example results:
O=S(=O)(O)c1cc(Cl)c(O)c2ncc(Cl)cc12 ... inactive
Cc1ccccc1-n1c(N)c(-c2nc3ccccc3[nH]2)sc1=S ... inactive
CCN(CC)c1c(C(=O)/C=C/c2ccc(OC)cc2)c(-c2ccccc2)nn(C)c1=O ... inactive
CCC1C(C)c2c([nH]c3ccccc23)C2C(=O)N(c3ccccc3)C(=O)C21 (stereo not drawn) ... inactive
C=C[C@H]1CN2CCc3c([nH]c4cc(O)ccc34)[C@@H]2C[C@@H]1C[C@H]1c2[nH]c3ccccc3c2CCN1C ... inactive

Now take the following compound into account.
Query block: Could you check what this test reported for CCCCCCCCCCCCCCC(C(=O)[O-])[n+]1ccccc1 (stereo not drawn) ?
Result block: inactive

###

# System: HT-29
# protocolText: NCI tumour cell line growth inhibition, 48 h
Active and inactive are the calls of the source. No stated cut-off is given here; in the data, active = GI50 up to about 1.1 µM and inactive = higher.
measuredMetric: GI50

Here are 5 compounds together with their reported answers.
O=C1C=CC(=O)N1c1ccc2c(c1)Cc1cc(NC(=O)C(F)(F)F)ccc1-2 ... 10.2 µM (inactive)
C=C1C(=O)OC2C1C(OC(=O)/C(C)=C/C)CC1(C)C(=O)CCC(=C)C21 (stereo not drawn) ... 4.88 µM (inactive)
CC(C)c1cc2c(cc1S(=O)(=O)O)[C@@]1(C)CCC[C@@](C)(C(=O)O)C1CC2 (stereo partly drawn) ... > 100 µM (inactive)
COc1ccccc1/N=C(\N)N/N=C/c1c[nH]c2ccccc12 ... 4.01 µM (inactive)
O=C1C2CC=CCC2C(=O)N1n1c(Cc2ccccc2)n[nH]c1=O (stereo not drawn) ... > 100 µM (inactive)

According to the records, this compound `CSc1ncc2c(C#N)c3ccccn3c(=O)c2n1` displays GI50 of > 100 µM (inactive)

Per the record, CC(=O)OCC1OC(OC2CC3C(C)(C)C(O)CC[C@]3(C)C3CCC45CC4(CCC5[C@@H](C)CC(O)C(O)C(C)(C)O)[C@]23C)C(O)C(O)C1O (stereo partly drawn) has GI50 of > 10 µM (inactive)

Lab note: Cc1c(-c2cc3n(n2)C(c2cccs2)C(C#N)=C(c2ccccc2)N3)c(=O)n(-c2ccccc2)n1C (stereo not drawn) gave GI50 of 43.7 µM (inactive)

Sample `COc1ccc(OC)c(/C(C)=N/NC(N)=S)c1` ; GI50 observed: > 100 µM (inactive)

Value of GI50 reported for the compound `CCc1cc(-c2nsc(=O)o2)c(S(=O)(=O)CC)s1` is 84.9 µM (inactive)

The recorded GI50 for entry O=C1C(Cl)C(c2ccc([N+](=O)[O-])cc2)N1n1cnc2ccccc2c1=O (stereo not drawn) equals > 100 µM (inactive)

Query `Oc1ncnc2c1CCCN2` yields GI50 of > 100 µM (inactive)

GI50 reported for this compound CC1(C)CC2(C)CC1CC2NC(=O)CCN1CCOCC1 (stereo not drawn) : > 100 µM (inactive)

###

# System: XF498
# protocolText: NCI tumour cell line growth inhibition, 48 h
Calls of active or inactive are those of the source. Rule as the data show it: active = GI50 up to about 1.1 µM and inactive = higher.
Reply using exactly one outcome from yes = active, no = inactive

Worked examples follow.
c1cc2ccc1C1NCCCN1CCN1CCCNC1c1ccc(cc1)C1NCCCN1CCN1CCCNC21 (stereo not given) ... no
CN(C)CCNC(=O)c1cccc2c1Nc1ccccc1S2 ... no
CNC(=O)OCc1nc(SC)n(C)c1CO ... no
COC(=O)/C(Cl)=C1/CC1COCc1ccccc1 (stereo not given) ... no
O=S(=O)(CC1=NC2C=CC=CC2N=C1)NCc1ccccc1 (stereo not given) ... no

Query block: Can you look up the reported call for `Cc1c2cc[n+]([O-])cc2c(C)c2c1[nH]c1ccccc12` for me?
Result block: no

Query block: Give the logged outcome of this assay for the following molecule: CC(=O)Nc1ccc(C2CC(c3ccc([N+](=O)[O-])cc3)=Nc3ccccc3[S+]2[O-])cc1 (stereo not given)
Result block: no

Query block: Tell me the assay call for Nc1nc2c(nnn2C2C=C(CO)C(O)C2O)c(=O)[nH]1 (stereo not given) please.
Result block: no

###

Recorded GI50 by entry
# Test system: UO-31
# protocolText: NCI tumour cell line growth inhibition, 48 h
Calls of active or inactive are those of the source. No stated cut-off is given here; in the data, active = GI50 up to about 1.1 µM and inactive = higher.

Look over these answered cases.
Cc1ccccc1-n1c(N)c(-c2nc3ccccc3[nH]2)sc1=S ... 23.8 µM (inactive)
O=C1C(Cl)C(c2ccc([N+](=O)[O-])cc2)N1n1cnc2ccccc2c1=O (configuration not stated) ... 71 µM (inactive)
C/C(=N\NC(=O)c1ccncc1)c1cccc(C(F)(F)F)c1 ... > 10 µM (inactive)
O=C(/C=C/c1ccsc1)c1ccco1 ... 8.87 µM (inactive)
O=C(O)CN1CCN2CCCCCCCCN(CC1)CCN(CC(=O)O)CC2 ... > 100 µM (inactive)

Looking up c1cc2ccc1C1NCCCN1CCN1CCCNC1c1ccc(cc1)C1NCCCN1CCN1CCCNC21 (configuration not stated) , I found its GI50 recorded as > 100 µM (inactive)

// recorded GI50 for CC(O)CC(O)(C(F)(F)F)C(F)(F)F (configuration not stated) : > 10 µM (inactive)

###

# System: RPMI-8226
# protocolText: NCI tumour cell line growth inhibition, 48 h
Structures can show the parent of a compound that is named as a salt. Activity calls are given as the source filed them. Rule as the data show it: active = GI50 up to about 1.1 µM and inactive = higher.
Output constraint: value belongs to 1 (yes) = active, 0 (no) = inactive

Some solved cases for reference:
CN1CC(=O)N(C)c2ncn(Cc3ccccc3)c2C1=O ... 0 (no)
CN(C)CCC=C1c2ccccc2C=Cc2ccccc21 [CYCLOBENZAPRINE HYDROCHLORIDE] ... 0 (no)
CN(C)c1ccc(/C=c2/c3ccccc3n3c2cc(C24CC5CC(CC(C5)C2)C4)[n+]3C)cc1 ... 1 (yes)
COC(=O)C1=C(c2cc(OC)c(OC)c(OC)c2)OC(c2cc(OC)c(OC)c(OC)c2)C1COC(C)=O (stereo unspecified) ... 0 (no)
CCOC(=O)C1C(O)CC2c3ccccc3-c3ccccc3C21 (stereo unspecified) ... 0 (no)

Query block: For this compound, state the assay outcome: `Cc1cccc2sc(NC(=O)c3cc([N+](=O)[O-])ccc3Cl)nc12`
Result block: 0 (no)

Query block: I would be grateful if you could indicate the recorded call for `O=C(NCCCCN(CCCNC(=O)C(F)(F)F)Cc1ccccc1)C(F)(F)F` .
Result block: 0 (no)

Query block: Per the records of this test, what outcome belongs to `C=C(Br)CNC(=O)Nc1ccc(Cl)c(Cl)c1` ?
Result block: 0 (no)

###

# reported GI50; entries follow
# System: ACHN
# protocolText: NCI tumour cell line growth inhibition, 48 h
Active and inactive are the calls of the source. No stated cut-off is given here; in the data, active = GI50 up to about 1.1 µM and inactive = higher.

Here's what some known entries look like.
COc1ccc(S(=O)(=O)NC(C)C(=O)O)cc1 (centres undefined) ... > 100 µM (inactive)
CCC(O)c1ccc(/N=C/c2ccccc2O)cc1 (centres undefined) ... > 100 µM (inactive)
c1ccc(CN2CCCN3CCN(CCCN(Cc4ccccc4)CC3)CC2)cc1 ... > 100 µM (inactive)
CCC1C(C)c2c([nH]c3ccccc23)C2C(=O)N(c3ccccc3)C(=O)C21 (centres undefined) ... 18.2 µM (inactive)
COc1cc(C2c3cc4c(cc3OC(N3CCOCC3)C2C)OCO4)cc(OC)c1OC (centres undefined) ... 3.85 µM (inactive)
Cc1ccc(Nc2ccc(Nc3ccc(C)cc3)c3c2C(=O)c2c(O)ccc(O)c2C3=O)cc1 ... > 100 µM (inactive)

The recorded GI50 for CNc1cc2c(c3ccccc13)C(CCl)CN2C(=O)c1cc2cc(OC)c(OC)c(OC)c2[nH]1 (centres undefined) is 0.000124 µM (active)

Measured GI50, `Clc1ccc(CN2COc3c(cc(Cl)c4cccnc34)C2)cc1` : 1.74 µM (inactive)

// `CCCN(CCC)CCc1cc(C(C)=O)n(S(=O)(=O)c2ccc(C)cc2)c1` : GI50 value = > 100 µM (inactive)
